Reference source for all entries: patent US8252946B2

- EXPERIMENTAL_PROTOCOL: Thermal stability: 4-Epi-Tigecycline and total impurities at ambient conditions and after 7 days at 80° C.
- Type: physicochemical
- MEASUREMENT_PARAMETERS: ambient conditions
PARAMETER: TOTAL IMPURITIES AT AMBIENT CONDITIONS
I only need the number, thanks.

These solved cases illustrate the format of a correct answer.
>  <COMPOUND>
CN(C)c1cc(NC(=O)CNC(C)(C)C)c(O)c2c1C[C@H]1C[C@H]3[C@H](N(C)C)C(O)=C(C(N)=O)C(=O)[C@@]3(O)C(O)=C1C2=O [WO 2006/128150 IV]

>  <PARAMETER>
TOTAL IMPURITIES AT AMBIENT CONDITIONS

>  <READOUT_VALUE>
0.40

$$$$
>  <COMPOUND>
CN(C)c1cc(NC(=O)CNC(C)(C)C)c(O)c2c1C[C@H]1C[C@H]3[C@H](N(C)C)C(O)=C(C(N)=O)C(=O)[C@@]3(O)C(O)=C1C2=O [WO 2006/128150 V]

>  <PARAMETER>
TOTAL IMPURITIES AT AMBIENT CONDITIONS

>  <READOUT_VALUE>
0.22

$$$$
>  <COMPOUND>
CN(C)c1cc(NC(=O)CNC(C)(C)C)c(O)c2c1C[C@H]1C[C@H]3[C@H](N(C)C)C(O)=C(C(N)=O)C(=O)[C@@]3(O)C(O)=C1C2=O [WO 2006/128150 I]

>  <PARAMETER>
TOTAL IMPURITIES AT AMBIENT CONDITIONS

>  <READOUT_VALUE>
0.75

$$$$

input: Give TOTAL IMPURITIES AT AMBIENT CONDITIONS for the following compound: CN(C)c1cc(NC(=O)CNC(C)(C)C)c(O)c2c1C[C@H]1C[C@H]3[C@H](N(C)C)C(O)=C(C(N)=O)C(=O)[C@@]3(O)C(O)=C1C2=O [WO 2006/128150 II]
output: 1.60

---

- EXPERIMENTAL_PROTOCOL: Water solubility testing (saturated solution in distilled water, UV-vis at 347 nm)
- Format: physicochemical
- MEASUREMENT_PARAMETERS: water, saturated solution in distilled water, stirred 30 minutes at room temperature, filtered 0.45 μm; read-out: Water solubility, CONCENTRATION
PARAMETER: solubility thermodynamic at 30 min
# include the unit after the value

input: Give solubility thermodynamic at 30 min for the following compound: CN(C)c1cc(NC(=O)CNC(C)(C)C)c(O)c2c1C[C@H]1C[C@H]3[C@H](N(C)C)C(O)=C(C(N)=O)C(=O)[C@@]3(O)C(O)=C1C2=O.Cl [Form A, Tigecycline hydrochloride]
output: 503 mg/mL

---

- EXPERIMENTAL_PROTOCOL: Thermal stability: 4-Epi-Tigecycline and total impurities at ambient conditions and after 7 days at 80° C.
- Format: physicochemical
- MEASUREMENT_PARAMETERS: after storing 7 days at 80° C.
PARAMETER: TOTAL IMPURITIES 7 DAYS AT 80° C.

input: Give TOTAL IMPURITIES 7 DAYS AT 80° C. for the following molecule: CN(C)c1cc(NC(=O)CNC(C)(C)C)c(O)c2c1C[C@H]1C[C@H]3[C@H](N(C)C)C(O)=C(C(N)=O)C(=O)[C@@]3(O)C(O)=C1C2=O [WO 2006/128150 III]
output: 4.46%
